Assay Name: FRG1 promoter luciferase signal modulators, primary screen, FRG1 inhibition for FSHD, cell-based, C2C12 myotubes, firefly/Renilla luciferase, luminescence (AID 1084)
Test Parameters: higher = more signal, called active from +8 up or from −8 down
Measure Name: z-score
// return just the number, without any unit appended

Completed entries (count: 4):
| Compound | Measure Name | Quantitative Readout |
| --- | --- | --- |
| CN(C)CCCCNC(=O)[C@H]1C[C@H]2C(=O)NCC(=O)N2[C@H]1c1cccc(OCCO)c1 | z-score | 0.836 |
| CCOC(=O)C1=C[C@@H](C(C)(C)C)N(S(=O)(=O)c2ccc(C)cc2)[C@H]1c1ccccc1Cl | z-score | -2.24 |
| CCCC=C(CCC)[C@@H](NC(=O)c1ccccc1)c1ccc(C(=O)OC)cc1 | z-score | 3.19 |
| O=C(NCCO)C1=C[C@H](Oc2ccccc2I)[C@@H](O)[C@H](NCc2ccc(F)cc2)C1 | z-score | -0.766 |

Enquiry: Consider the compound shown here: CC(=O)n1cc(C(O)C2C=CC3C(=O)N(c4ccccc4)C(=O)C3N2Nc2ccccc2F)c2ccccc21 (stereo not drawn) What is its recorded z-score?
Return: 0.625

Enquiry: O=C1O[C@@H](c2ccccc2)[C@@H](c2ccccc2)N2[C@@H](c3ccc(O)cc3)[C@]3(C(=O)Nc4ccc(C#CC5=CCCCC5)cc43)[C@@H](C(=O)N3CCCCCCC3)[C@H]12 , same question.
Return: -1.38

Enquiry: COC(=O)[C@@]1(Cc2ccc(F)cc2)[C@H]2c3cc(C(=O)N(C)C)n(CCO)c3C[C@H]2CN1C(=O)c1ccccc1 , same question.
Return: -1.11

====

Measurement Target: Dihydroorotate dehydrogenase (quinone), mitochondrial (Plasmodium falciparum (isolate 3D7))
Assay Name: PfDHODH enzyme inhibitors, primary screen, biochemical, C-terminal His tag, absorbance 600 nm (AID 1175);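 further: recombinant parasite enzyme with a five histidine tag at its C terminus; test concentration not given here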
Test Parameters: DCIP absorbance 600 nm, higher = more signal, called active from +8 up or from −8 down
Measure Name: composite z-score
// return just the number, without any unit appended

Completed entries (count: 2):
| Query Smiles | composite z-score |
| --- | --- |
| COC(=O)[C@@]1(Cc2ccc(OC)cc2)[C@@H]2[C@@H](CC(=O)[C@H]2CC(=O)C(=O)N2CCCC2)CN1C(=O)c1ccccc1 | -0.448 |
| C[N+](C)(C)CCCCCCNC(=O)[C@@H]1C[C@@H]2C(=O)N[C@@H](Cc3ccccc3)C(=O)N2[C@@H]1c1ccc(O)cc1 | -0.77 |

Enquiry: Consider the molecule shown here: CC(C)C(=C=CC[C@@H](O)c1ccccc1OCCO)C[C@@H](O)c1cc(Cl)cc(Cl)c1O What is its recorded composite z-score?
Return: -2.32

====

Tested on: Chordin-like protein 2 (CHRDL2)
Assay Name: CHRDL2 small-molecule binders, primary screen, biochemical, small-molecule microarray, 635 nm fluorescence (AID 1126);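 further: printed compound slides probed with Chrdl2 protein at 4 µg/mL for 1 h at 4 C; score merges 667 nm emission intensity with signal to noise over three replicate slides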
Test Parameters: small-molecule microarray binding, fluorescence 635 nm; higher = more signal
Measure Name: composite z-score
// return just the number, without any unit appended

| Compound | composite z-score |
| --- | --- |
| [N-]=[N+]=NCc1ccccc1[C@H]1OC(c2ccc(OCCCO)cc2)=N[C@@]1(Cc1ccccc1)C(=O)N1CCOCC1 | -0.0573 |
| CC(C)C(=C=CC[C@@H](O)c1cccc(OCCO)c1)CCO | 0.55 |

Enquiry: Consider the compound shown here: CCN(CC)c1ccc(N2CC=CC34O[C@@H]5C=CCOC(=O)[C@@H]5[C@H]3C(=O)N(CCO)[C@@H]4C2=O)cc1 (stereo not given in full) What is its recorded composite z-score?
Return: -1.83

Enquiry: O=C1O[C@H](c2ccccc2)[C@H](c2ccccc2)N2[C@H]1[C@@H](C(=O)N1CCN(c3ncccn3)CC1)[C@]1(C(=O)Nc3ccccc31)[C@H]2c1ccc(O)cc1 , same question.
Return: -0.0771

Enquiry: NC(=O)NCC#Cc1ccc2c(c1)[C@]1(C(=O)N2)[C@H](C(=O)N2CCCCCCC2)[C@H]2C(=O)O[C@H](c3ccccc3)[C@H](c3ccccc3)N2[C@@H]1c1ccc(O)cc1 , same question.
Return: 1.2

Enquiry: C=C(CCCC)/C(=C/C[C@H](OC(C)=O)c1cccc(OCCO)c1)c1cc(C(=O)OC)ccc1OC , same question.
Return: -0.149

Enquiry: CC(C)(C)OC(=O)CC[C@]1(C(=O)N2CCOCC2)N=C(c2ccc(OCCCO)cc2)O[C@H]1c1ccccc1CN=[N+]=[N-] , same question.
Return: -0.227

Enquiry: [N-]=[N+]=NCc1ccccc1C[C@@]1(C(=O)O)N=C(c2ccc(OCCCO)cc2)O[C@@H]1c1ccccc1CN=[N+]=[N-] , same question.
Return: -0.0541

Enquiry: C#CCN=C(N)N , same question.
Return: 0.437

Enquiry: COCCCNC(=O)[C@@]1(Sc2ccc(C)cc2)CC(=O)N(C2CCCCC2)[C@@H]1c1ccc(CO)cc1I , same question.
Return: 0.818

Enquiry: COc1ccc(NN2C(C(O)c3ccc(OC)cc3)C=CC3C(=O)N(C4CCCCC4)C(=O)C32)cc1 (stereo not given) , same question.
Return: -0.138

Enquiry: C=CCNC(=O)[C@H]1[C@@H]2C(=O)O[C@@H](c3ccccc3)[C@@H](c3ccccc3)N2[C@@H](c2ccccc2OCCO)[C@]12C(=O)N(C(=O)OCCOC)c1ccccc12 , same question.
Return: 0.414
